Assay system UniProtKB C7C422; read-out recorded as IC50.
Sequence (C7C422 whole entry, looked up, species assumed): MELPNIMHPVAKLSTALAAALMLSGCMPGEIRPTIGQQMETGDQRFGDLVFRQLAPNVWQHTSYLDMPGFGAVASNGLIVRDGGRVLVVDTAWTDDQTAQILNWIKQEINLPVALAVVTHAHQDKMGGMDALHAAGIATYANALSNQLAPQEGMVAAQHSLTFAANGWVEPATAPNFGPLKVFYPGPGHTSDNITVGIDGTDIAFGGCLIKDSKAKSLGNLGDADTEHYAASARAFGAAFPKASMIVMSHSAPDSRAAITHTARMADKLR
Show the value, then the unit it is measured in.

IC50 recorded for this compound, "COC1(CO)CCN(c2ccc(S(=O)(=O)N[C@H](C)CN)c(S(N)(=O)=O)c2-c2nn[nH]n2)CC1" , is 170 pM

IC50 recorded for this compound, "NS(=O)(=O)c1c(S(=O)(=O)N[C@@H]2CCNC2)ccc(N2CCC(CF)CC2)c1-c1nnn[nH]1" , is 210 pM

IC50 recorded for this compound, "NC[C@@H](O)CNS(=O)(=O)c1ccc(N2CCC[C@H](CN)C2)c(-c2nnn[nH]2)c1S(N)(=O)=O" , is 50400 pM

IC50 recorded for this compound, "NS(=O)(=O)c1c(S(=O)(=O)N[C@@H]2CCNC2)ccc(N2CCNC2=S)c1-c1nn[nH]n1" , is 940 pM

IC50 recorded for this compound, "NC[C@@H](O)CNS(=O)(=O)c1ccc(N2CCC(CO)CC2)c(-c2nnn[nH]2)c1S(N)(=O)=O" , is 450 pM

IC50 recorded for this compound, "NCCC1CCN(c2ccc(S(=O)(=O)N[C@H](CN)CO)c(S(N)(=O)=O)c2-c2nn[nH]n2)CC1" , is 2860 pM

IC50 recorded for this compound, NCCNS(=O)(=O)C1CCN(c2ccc(S(=O)(=O)NC[C@H](O)CN)c(S(N)(=O)=O)c2-c2nn[nH]n2)CC1 [Example 131] , is 790 pM

====

- System: P. aeruginosa MB9798 (efflux+, IMP-1 plasmid)
- reportedConditions: fold difference between efflux+ (MB9798) and efflux− (MB9799) strains
Consider the cut-off 2. If the recorded Efflux ratio is strictly smaller, the label is TRUE; if not, the label is FALSE.

Identify whether the compound "NS(=O)(=O)c1c(S(=O)(=O)C2CNC2)ccc(N2CCC(O)CC2)c1-c1nnn[nH]1" records Efflux ratio below 2.
FALSE

Identify whether the compound "NS(=O)(=O)c1c(S(=O)(=O)N[C@@H]2CCNC2)ccc(N2CC[C@@H](O)C2)c1-c1nnn[nH]1" records Efflux ratio below 2.
TRUE

Identify whether the compound "NCCS(=O)(=O)c1ccc(N2CCCCC2)c(-c2nnn[nH]2)c1S(N)(=O)=O" records Efflux ratio below 2.
FALSE

Identify whether the compound "NS(=O)(=O)c1c(S(=O)(=O)N[C@@H]2CCNC2)ccc(N2CCC(O)CC2)c1-c1nnn[nH]1" records Efflux ratio below 2.
TRUE

Identify whether the compound "NS(=O)(=O)c1c(S(=O)(=O)N[C@@H]2CCNC2)ccc(N2CC(N3CCOCC3)C2)c1-c1nnn[nH]1" records Efflux ratio below 2.
FALSE

====

Kindly state CL5741 S. marcescens MITC95 IMP for each of the entries shown.
- Test system: Serratia marcescens expressing IMP-1 (CL5741)
- Type: cell-based
- reportedConditions: with imipenem 1 μg/ml; 95% inhibition of bacterial growth
Your answer should be a plain number; it is taken to be in µM.

// returns CL5741 S. marcescens MITC95 IMP for NC[C@@H](O)CNS(=O)(=O)c1ccc(N2CCC(C3COC(=O)N3)CC2)c(-c2nn[nH]n2)c1S(N)(=O)=O (some centres unmarked) with Serratia marcescens expressing IMP-1 (CL5741); value = 3.13

// returns CL5741 S. marcescens MITC95 IMP for NC[C@@H](O)CNS(=O)(=O)c1ccc(N2CCN3CCOCC3C2)c(-c2nn[nH]n2)c1S(N)(=O)=O (some centres unmarked) [Example 129, 2,2,2-trifluoroacetate] with Serratia marcescens expressing IMP-1 (CL5741); value = 3.13

// returns CL5741 S. marcescens MITC95 IMP for "NC[C@@H](O)CNS(=O)(=O)c1ccc(N2CCCN(CCO)CC2)c(-c2nn[nH]n2)c1S(N)(=O)=O" with Serratia marcescens expressing IMP-1 (CL5741); value = 1.56

// returns CL5741 S. marcescens MITC95 IMP for "NS(=O)(=O)c1c(S(=O)(=O)N[C@@H]2CCNC2)ccc(N2CCC(OCCO)CC2)c1-c1nnn[nH]1" with Serratia marcescens expressing IMP-1 (CL5741); value = 12.50

// returns CL5741 S. marcescens MITC95 IMP for NS(=O)(=O)c1c(S(=O)(=O)N[C@@H]2CCNC2)ccc(N2CCC(CO)CC2=O)c1-c1nn[nH]n1 (some centres unmarked) with Serratia marcescens expressing IMP-1 (CL5741); value = 3.13

// returns CL5741 S. marcescens MITC95 IMP for "CNCC1CCN(c2ccc(S(=O)(=O)N[C@@H]3CCNC3)c(S(N)(=O)=O)c2-c2nnn[nH]2)CC1" with Serratia marcescens expressing IMP-1 (CL5741); value = 1.56

// returns CL5741 S. marcescens MITC95 IMP for "NS(=O)(=O)c1c(S(=O)(=O)N[C@@H]2CCNC2)ccc(N2CCC(Oc3ccccn3)CC2)c1-c1nnn[nH]1" with Serratia marcescens expressing IMP-1 (CL5741); value = 3.13

// returns CL5741 S. marcescens MITC95 IMP for NC[C@@H](O)CNS(=O)(=O)c1ccc(N2CC[C@@H](CN)[C@@H](F)C2)c(-c2nn[nH]n2)c1S(N)(=O)=O (racemic) with Serratia marcescens expressing IMP-1 (CL5741); value = 0.20

// returns CL5741 S. marcescens MITC95 IMP for "NCCNS(=O)(=O)c1ccc(N2CCC(CN)CC2)c(-c2nnn[nH]2)c1S(N)(=O)=O" with Serratia marcescens expressing IMP-1 (CL5741); value = 0.78

// returns CL5741 S. marcescens MITC95 IMP for "NCC=C1CCN(c2ccc(S(=O)(=O)NC[C@H](O)CN)c(S(N)(=O)=O)c2-c2nn[nH]n2)CC1" with Serratia marcescens expressing IMP-1 (CL5741); value = 1.56

// returns CL5741 S. marcescens MITC95 IMP for "NS(=O)(=O)c1c(S(=O)(=O)C2CNC2)ccc(N2CCC(CCO)CC2)c1-c1nnn[nH]1" with Serratia marcescens expressing IMP-1 (CL5741); value = 3.13

// returns CL5741 S. marcescens MITC95 IMP for "CC1(CN)CCN(c2ccc(S(=O)(=O)NC[C@H](O)CN)c(S(N)(=O)=O)c2-c2nn[nH]n2)CC1" with Serratia marcescens expressing IMP-1 (CL5741); value = 1.56

// returns CL5741 S. marcescens MITC95 IMP for "NS(=O)(=O)c1c(S(=O)(=O)C2CNC2)ccc(N2CCC3(CCNCC3)CC2)c1-c1nnn[nH]1" with Serratia marcescens expressing IMP-1 (CL5741); value = 1.56

// returns CL5741 S. marcescens MITC95 IMP for "NC[C@@H](O)CNS(=O)(=O)c1ccc(N2CCC(O)CC2)c(-c2nn[nH]n2)c1S(N)(=O)=O" with Serratia marcescens expressing IMP-1 (CL5741); value = 1.56

====

Assay system IMP-1 (Serratia marcescens, UniProt P52699); read-out recorded as IC50.
Where a name gives a salt, the structure may show the parent alone.
Your answer should be a plain number; it is taken to be in nM.

IC50 recorded for this molecule, "NS(=O)(=O)c1c(S(=O)(=O)N[C@@H]2CCNC2)ccc(N2CCC(S(N)(=O)=O)CC2)c1-c1nnn[nH]1" , is 0.43

IC50 recorded for this molecule, "NS(=O)(=O)c1c(S(=O)(=O)N[C@@H]2CCNC2)ccc(N2CCC(O)CC2)c1-c1nnn[nH]1" , is 0.47

IC50 recorded for this molecule, NCC1C2CCC1CN(c1ccc(S(=O)(=O)NC[C@H](O)CN)c(S(N)(=O)=O)c1-c1nn[nH]n1)C2 (some centres unmarked) , is 3.49

IC50 recorded for this molecule, "NS(=O)(=O)c1c(S(=O)(=O)N[C@@H]2CCNC2)ccc(N2CC(N3CCCCC3)C2)c1-c1nnn[nH]1" , is 15

IC50 recorded for this molecule, "NCCNS(=O)(=O)c1ccc(N2CCC(CO)CC2)c(-c2nnn[nH]2)c1S(N)(=O)=O" , is 0.58

IC50 recorded for this molecule, "NS(=O)(=O)c1c(S(=O)(=O)N[C@@H]2CCNC2)ccc(N2CCC(c3c[nH]cn3)CC2)c1-c1nn[nH]n1" , is 0.22

IC50 recorded for this molecule, NC[C@@H](O)CNS(=O)(=O)c1ccc(N2CCC3(CC2)CC3N)c(-c2nn[nH]n2)c1S(N)(=O)=O (some centres unmarked) , is 4.08

IC50 recorded for this molecule, NC(=O)C1CCN(c2ccc(S(=O)(=O)N[C@@H]3CCNC3)c(S(N)(=O)=O)c2-c2nn[nH]n2)CCN1 (some centres unmarked) , is 2.43

IC50 recorded for this molecule, NCCC1CCCN(c2ccc(S(=O)(=O)NC[C@H](O)CN)c(S(N)(=O)=O)c2-c2nn[nH]n2)CC1 (some centres unmarked) [Example 140, trifluoroacetate] , is 6.34

IC50 recorded for this molecule, "NS(=O)(=O)c1c(S(=O)(=O)N[C@@H]2CCNC2)ccc(N2CC[C@H](CO)C2)c1-c1nnn[nH]1" , is 0.98

IC50 recorded for this molecule, CC1CN(c2ccc(S(=O)(=O)NC[C@H](O)CN)c(S(N)(=O)=O)c2-c2nn[nH]n2)CCN1CCO.O=C(O)C(F)(F)F.O=C(O)C(F)(F)F (some centres unmarked) [Example 176, trifluoroacetate) salt] , is 5.1

IC50 recorded for this molecule, "CN(C)CC1(O)CCN(c2ccc(S(=O)(=O)N[C@@H]3CCNC3)c(S(N)(=O)=O)c2-c2nnn[nH]2)CC1" , is 37

IC50 recorded for this molecule, "NS(=O)(=O)c1c(S(=O)(=O)N[C@@H]2CCNC2)ccc(N2CCN(CCO)CC2)c1-c1nn[nH]n1" , is 2.17

IC50 recorded for this molecule, "NC[C@@H](O)CNS(=O)(=O)c1ccc(N2CC[C@@H](N)[C@H](F)C2)c(-c2nn[nH]n2)c1S(N)(=O)=O" , is 3.37

# credit: patent US11207312B2
